The entries below are paired with their reported melting point.
Counter-ions that a name gives are not always drawn.

Sure, the documented melting point for "COc1ccc2c3c1O[C@H]1C[C@@H](O)C=C[C@@]31CCN1OC=C(C#N)[C@H]21" is 137 to 139 °C

Sure, the documented melting point for COc1ccc2c3c1O[C@H]1C[C@@H](O)C=C[C@@]31CCN(CCCCCN1C(=O)c3cccc4cccc(c34)C1=O)C2 (as salt: fumarate) is 129 to 134 °C

Sure, the documented melting point for "COc1ccc2c3c1O[C@H]1C[C@@H](O)C=C[C@@]31CCN(C)C2=O" is 251 to 255 °C

Sure, the documented melting point for COc1ccc2c3c1O[C@H]1C[C@@H](O)C=C[C@@]31CCN1OC(OC(C)=O)C[C@@H]21 (stereo partly shown) is 132 to 134 °C

---

Molecular target: acetylcholinesterase (AChE), human recombinant (Homo sapiens)
Assay: biochemical
Format: biochemical
Conditions: human recombinant enzyme (hr); pre-incubation of the enzyme with inhibitor (mE); read-out: IC50 (AChE, mE, hr)
PARAMETER: IC50 (µM)
Report as a plain number; the unit µM is understood.

Sure, the documented IC50 for COc1ccc2c3c1OC1CC(O)C=CC31CCCC2N (stereo not drawn) [SPH-1309] is 200

---

Molecular target: acetylcholinesterase (AChE), human recombinant (Homo sapiens, UniProt P22303)
Sequence (P22303 32-614): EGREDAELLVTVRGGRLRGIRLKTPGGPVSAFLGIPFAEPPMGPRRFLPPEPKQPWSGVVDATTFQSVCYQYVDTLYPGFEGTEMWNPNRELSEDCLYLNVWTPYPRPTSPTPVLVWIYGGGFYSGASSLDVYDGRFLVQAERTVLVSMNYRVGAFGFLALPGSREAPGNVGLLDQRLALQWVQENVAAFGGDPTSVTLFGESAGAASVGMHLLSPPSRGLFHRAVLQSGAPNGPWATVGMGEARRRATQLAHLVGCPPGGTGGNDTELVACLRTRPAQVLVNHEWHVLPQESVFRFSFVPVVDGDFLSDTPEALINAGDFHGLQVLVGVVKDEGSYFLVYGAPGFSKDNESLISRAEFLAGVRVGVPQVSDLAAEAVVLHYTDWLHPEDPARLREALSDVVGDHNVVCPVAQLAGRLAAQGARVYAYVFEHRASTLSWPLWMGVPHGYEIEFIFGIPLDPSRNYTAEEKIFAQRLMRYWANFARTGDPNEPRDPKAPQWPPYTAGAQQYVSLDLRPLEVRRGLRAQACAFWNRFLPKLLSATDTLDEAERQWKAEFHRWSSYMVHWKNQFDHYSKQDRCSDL
Assay: biochemical
Type: biochemical
Details: read-out: IC50 (AChE, mE, hr); human recombinant enzyme (hr); pre-incubation of the enzyme with inhibitor (mE)
PARAMETER: pIC50
Entry type: numeric. Quantity: pIC50, the -log10 of concentration in molar units.

Sure, the documented pIC50 for COc1cc(Br)c2c3c1OC1C[C@@H](O)C=CC31CCN(CCC#N)C2 (stereo in doubt) [SPH-1210] is 3.70

---

Target: acetylcholinesterase (AChE), human recombinant (Homo sapiens, UniProt P22303)
Assay: biochemical
Type: biochemical
PARAMETER: IC50 (nM)
Report as a plain number; the unit nM is understood.

Sure, the documented IC50 for COc1ccc2c3c1OC1CC(O)C=CC31CCN(CCCCN1C(=O)c3ccccc3S1(=O)=O)C2 (stereo not shown) is 22

---

Biological target: acetylcholinesterase (AChE), human recombinant (Homo sapiens)
Assay: biochemical
Type: biochemical
Conditions: human recombinant enzyme (hr); pre-incubation of the enzyme with inhibitor (mE); read-out: IC50 (AChE, mE, hr)
The entries below are paired with their reported pIC50.
Entry type: numeric. Quantity: pIC50, the -log10 of concentration in molar units.

Worked examples, 3 molecules total:
COc1ccc2c3c1OC1C[C@@H](O)C=CC31CCN(C(=O)Nc1ccccc1C(F)(F)F)C2 (some centres unmarked) = 4.52
CCOC(=O)CCN1CCC23C=C[C@H](O)CC2Oc2c(OC)cc(Br)c(c23)C1 (some centres unmarked) = 3.70
COc1ccc2c3c1OC1CC(O)C=CC31CCN(CCN)C2 (centres unmarked) = 5.89

acetylcholinesterase (AChE), human recombinant (Homo sapiens) pIC50 of COc1cc(C)c2c3c1OC1CC(O)C=CC31CCN(C)C2 (centres unmarked) [SPH-1200] is 3.70

acetylcholinesterase (AChE), human recombinant (Homo sapiens) pIC50 of COc1ccc2c3c1OC1CC(O)C=CC31CN(C)CC2 (centres unmarked) is 3.70

acetylcholinesterase (AChE), human recombinant (Homo sapiens) pIC50 of C=CCCC(=O)N1CCC23C=CC(O)CC2Oc2c(OC)ccc(c23)C1 (centres unmarked) is 5.08

acetylcholinesterase (AChE), human recombinant (Homo sapiens) pIC50 of COc1cc(N(C)C)c2c3c1O[C@H]1CC(O)C=CC31CCN(C)C2 (some centres unmarked) is 3.70

acetylcholinesterase (AChE), human recombinant (Homo sapiens) pIC50 of COc1ccc2c3c1OC1CC(O)C=CC31CCN(CCC(=O)O)C2 (centres unmarked) is 4.38
